Hey, just so you know, these numbers are from the nanobody polyreactivity screen of Harvey et al. (2022).

# test: yeast display, Sf9 membrane polyspecificity reagent, FACS + sequencing; frameworks hold sequencing errors
experimental_endpoint: polyreactivity (PSR sort gate)

These solved cases illustrate the format of a correct answer.
QVQIVESGGRLDQAGGILRLSCAASGRTFTVNAMGWNRQAPGKERELVATIRSGGTTNYAASVKGRFTISRDNAKNTVYLTMNRLKPEDTAVYYCNARVLTRTSVVRYYYWGQGTQVTVSS :: high polyreactivity
QVHLVESGGGLVQAGGSLRLSCAASGLIFYRYAMGWYRQAPGKERELVATISSGGSTNYADSVKGRFTISRDNAKNTVYLQMNSLKPEDTAVYYCAASRWLYYYLFEYWGQGTQGTVSS :: high polyreactivity
QVQLVESGGCLVQAGGSLRLSCAASGRTLGYYTMGWYRQAPGKERELVATITPGGSTSYADSVKGRFTISRDNAKNTVYLQMNSLKPEDTAVYYCARTRPYYLLYSSNFRYDYWGQGTQVTVSS :: high polyreactivity
QVQLVESVGGLVQAGGSLRLSCAASGSMFKVYAMGWYRQAPGKEREFVAAITSSDSNTNYADSVKGRFTISRDNAKNTVYLQMNSLKPEDTAVYYCNKDGGGDSYWYDYWGQGTQVTVSS :: low polyreactivity
QVQLVESGGGLVQAGGSLRLSCSASGRIFYPYAMGWYRQAPGKERELVAAITRRTASTYYADSVKGRFTISRDNAKNTVYLQMNSLKPEDTAVYFCAADSYLKRPYYAGYYYWGQGTQVTVSS :: high polyreactivity

Kindly give each listed record's polyreactivity (PSR sort gate).
1. QVQLVESGRGLVQAGGSLRLSCAASGFTFSLNAMGWYRQAPGKERELVAGISIGGSTNYADSVKGRFTISRDNAKNTVYLQMNSLKPEDTAVYYCNAYYWSATWYFAAWDYYYWGQGTQVTVSS
2. QVQLVESGGGLVQAGGSLRLSCAASGNIFSAYALGWYRQAPGKERELVATITSGGITYYADSVKGRFTISRDNAKNTVYLQMNSLNPEDTAVYYCNADHHGQAEYGYWGQGTQVTVSS

Out:
["high polyreactivity", "low polyreactivity"]

Kindly give each listed record's polyreactivity (PSR sort gate).
1. QVQLVESGGGLVQAGGSLRLSCAASGRIFYRYAMGWYRQAPGKERELVAAISRTGSRTYYADSVKGRFTISRDNAKNTVYLQMNSLKPEDTAVYYCNKVSAPAEFRSRGYWGQGTQVTVSS
2. QVQLVESGGGLVQAGGSLRLSCAASGRTFSVYTMGWYRQAPGKERELVASINWSGGRTYYADSVKGRFTISRDNAKNTVYLQMNSLKPEDTAVYYCAATGWRTLYDYWGQGTQVTVSS
3. QVQLVESGGGLVQAGGSLRLSCPASVSIFYTYAMGLYRQAPGKEREFFASNTYRGSNTYYADSVKGRFTISRDNAKNTVYLQMNSLKPEDTAVYYCAAERYLYYPPYIYETSYVYWGQGSQVTVSS
4. QVQLVESGGGLVQAGGSLRLSCAASGRTFPYYTMGWYRQAPGKERELVAAIDGSGDNTYYADSVKGRFTISRDYAKNTVYLQMNSLKPEDTAVYYCTAEQWGSLDYWGQGTQVTVSA
5. QVQLVESGGGLVHAGGSLRLRCAASGRTFYFSNMGWYRQAPGKQRELVATIRWSAGSTYYADSVKGRFTISRDNAKNSVYLQMKSLKPEDTAVYYCNGDPYVYSSWQYGYWGQGTQVTVSS

Out:
1. high polyreactivity
2. high polyreactivity
3. low polyreactivity
4. low polyreactivity
5. high polyreactivity

Kindly give each listed record's polyreactivity (PSR sort gate).
1. QVQLVESGGGLVQAGGSHSLRCAASGSIFYRYDRGWYRQAPGTARELVAAITRSGGSTYYADSVKGRFTISRDNAKNTVYLQMNSLKPEDTAVYFCNASIDRYRLLIFPRPYWKYAYWGQGTQVTVSS
2. QVQLVESGGGLVQAGGSLRLSCAASGITFSRNAMGWYRQAPGKERELVATITSGGSTNYADSVKGRFTISRDNAKNTVYLQMNSLKPEDTAVYYCNAVWNTFISGRSYDYWGQGTQVTVSS
3. QVQLVESGGGLVQAGGSLRLSCAASGLIFPVYVMGWYRQAPGKEREFVAAITWSTSTYYADSVKGRFTISRDNAKNTVYLQMNSLKPEDTAVYYCNARRGWYSPIYYYWGQGTQVTVSS

Out:
low polyreactivity
low polyreactivity
high polyreactivity
